Quick list: IC50 per entry.
System: MCF7
TEST: Anticancer activity against human MCF7 cells assessed as reduction in cell viability incubated for 24 hrs by MTT colorimetric assay
Type: functional, cell-based
TEST SETTINGS: MCF7, 24 h
READOUT NAME: IC50

- MOLECULE: "N#CC1=C(N)Oc2[nH]nc(-c3ccccc3)c2C1c1coc2ccccc2c1=O (stereo not given)"
  RESULT: "69.8 µg/mL"
- MOLECULE: "N#CC(C#N)=C1c2c(-c3ccccc3)n[nH]c2Oc2c1c(-c1ccccc1O)[nH]c1nc(=O)[nH]c(=O)c2-1"
  RESULT: "22.6 µM"
- MOLECULE: "N#CC(C#N)=C1c2c(-c3ccccc3)n[nH]c2Oc2[nH]c(=S)nc(-c3ccccc3O)c21"
  RESULT: "22.6 µM"
- MOLECULE: "COc1cccc2c1C(=O)c1c(O)c3c(c(O)c1C2=O)C[C@@](O)(C(=O)CO)C[C@@H]3O[C@H]1C[C@H](N)[C@H](O)[C@H](C)O1"
  RESULT: "0.467 µM"
- MOLECULE: "N#CC(C#N)=C1c2c(-c3ccccc3)n[nH]c2Oc2[nH]c(=O)nc(-c3ccccc3O)c21"
  RESULT: "30.1 µM"

* * *

TGT: Polyunsaturated fatty acid 5-lipoxygenase (Homo sapiens)
Sequence (P09917 whole entry): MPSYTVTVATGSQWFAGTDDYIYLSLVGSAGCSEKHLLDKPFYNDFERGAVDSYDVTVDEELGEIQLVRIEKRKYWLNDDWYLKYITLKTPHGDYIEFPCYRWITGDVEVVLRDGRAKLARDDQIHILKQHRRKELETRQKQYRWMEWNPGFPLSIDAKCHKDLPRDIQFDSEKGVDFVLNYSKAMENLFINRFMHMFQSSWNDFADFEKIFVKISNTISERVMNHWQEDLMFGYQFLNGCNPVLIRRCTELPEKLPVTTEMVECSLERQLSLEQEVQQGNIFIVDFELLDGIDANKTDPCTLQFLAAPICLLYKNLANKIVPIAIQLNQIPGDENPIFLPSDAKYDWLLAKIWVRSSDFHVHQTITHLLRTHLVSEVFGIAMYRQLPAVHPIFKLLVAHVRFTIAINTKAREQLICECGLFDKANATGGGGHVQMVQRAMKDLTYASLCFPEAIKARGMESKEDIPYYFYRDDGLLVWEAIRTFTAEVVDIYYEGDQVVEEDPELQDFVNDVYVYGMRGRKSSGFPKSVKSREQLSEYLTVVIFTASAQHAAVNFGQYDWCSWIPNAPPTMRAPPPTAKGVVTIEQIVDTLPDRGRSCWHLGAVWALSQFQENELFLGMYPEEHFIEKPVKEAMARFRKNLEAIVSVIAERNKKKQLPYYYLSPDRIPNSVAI
pIC50: −log10 of the molar value.

- COMPOUND: "N#CC1=C(NC[C@]2(O)O[C@H](O)[C@@H](O)[C@@H](O)[C@H]2O)Oc2[nH]c(=S)[nH]c(=O)c2C1c1ccc(Cl)cc1 (stereo partly specified)"
  TGT: "Polyunsaturated fatty acid 5-lipoxygenase (Homo sapiens)"
  pIC50: 5.78

* * *

Test system: HCT-116
TEST: Anticancer activity against human HCT-116 cells assessed as reduction in cell viability incubated for 96 hrs by MTT assay
Type: functional, cell-based
TEST SETTINGS: HCT-116, 96 h
pIC50: −log10 of the molar value.
Reported values of pIC50 for individual entries

- COMPOUND: "CONC1=C(C#N)Oc2[nH]c(=O)[nH]c(=O)c2C1c1cccs1 (stereo unspecified)"
  pIC50: 5.20
- COMPOUND: "N#CC1=C(N)Oc2[nH]c(=O)[nH]c(=O)c2C1c1cccs1 (stereo unspecified)"
  pIC50: 5.56
- COMPOUND: "CCO/C=N/C1=C(C#N)C(c2cccs2)c2c([nH]c(=O)[nH]c2=O)O1 (stereo unspecified)"
  pIC50: 5.54
- COMPOUND: "Nc1ncnc2c1Oc1[nH]c(=O)[nH]c(=O)c1C2c1cccs1 (stereo unspecified)"
  pIC50: 5.14
- COMPOUND: "O=c1[nH]c2c(c(=O)[nH]1)C(c1cccs1)c1[nH]c(=S)n(-c3ccccc3)c(=O)c1O2 (stereo unspecified)"
  pIC50: 5.56
- COMPOUND: "CN[C@@H]1C[C@H]2O[C@@](C)([C@@H]1OC)n1c3ccccc3c3c4c(c5c6ccccc6n2c5c31)C(=O)NC4"
  pIC50: 5.16
- COMPOUND: "Nc1nn(-c2cc([N+](=O)[O-])ccc2[N+](=O)[O-])c2c1Oc1[nH]c(=O)[nH]c(=O)c1C2c1cccs1 (stereo unspecified)"
  pIC50: 5.55
- COMPOUND: "O=c1[nH]c2c(c(=O)[nH]1)C(c1cccs1)c1[nH]c(=S)[nH]c(=S)c1O2 (stereo unspecified)"
  pIC50: 5.56
- COMPOUND: "Nc1nc(S)nc2c1Oc1[nH]c(=O)[nH]c(=O)c1C2c1cccs1 (stereo unspecified)"
  pIC50: 5.56
- COMPOUND: "Nc1cc(-c2ccc([N+](=O)[O-])cc2)nc2c1C(c1cccs1)c1c([nH]c(=O)[nH]c1=O)O2 (stereo unspecified)"
  pIC50: 5.56
- COMPOUND: "Cc1nc(O)c2c(n1)Oc1[nH]c(=O)[nH]c(=O)c1C2c1cccs1 (stereo unspecified)"
  pIC50: 5.56

* * *

TEST: Cytotoxicity against human WI-38 cells assessed as cell growth inhibition incubated for 24 hrs
Assay type: toxicity, cell-based
READOUT NAME: IC50 at 24 h (nM)

- COMPOUND: "N#CC1=C(N)C2C(=NC(NNc3ccccc3)=NC2c2ccc(Cl)cc2)OC1=O (stereo unspecified)"
  NUMBER: 222

* * *

System: Bacillus subtilis
TEST: Antibacterial activity against Bacillus subtilis assessed as diameter of inhibition zone
Format: functional

- COMPOUND: "N#CC1=C(N)Oc2[nH]c(=O)[nH]c(=O)c2C1c1ccccc1 (stereo not drawn)"
  diameter of the inhibition zone (DIZ), mm: 10
- COMPOUND: "N#CC1=C(N)Oc2[nH]c(=O)[nH]c(=O)c2C1c1cccc(Br)c1 (stereo not drawn)"
  diameter of the inhibition zone (DIZ), mm: 18
- COMPOUND: "N#CC1=C(N)Oc2[nH]c(=O)[nH]c(=O)c2C1c1ccc(Br)cc1 (stereo not drawn)"
  diameter of the inhibition zone (DIZ), mm: 14
- COMPOUND: "N#CC1=C(N)Oc2[nH]c(=O)[nH]c(=O)c2C1c1ccc(F)cc1 (stereo not drawn)"
  diameter of the inhibition zone (DIZ), mm: 10
- COMPOUND: "COc1ccc(C2C(C#N)=C(N)Oc3[nH]c(=O)[nH]c(=O)c32)cc1 (stereo not drawn)"
  diameter of the inhibition zone (DIZ), mm: 12
- COMPOUND: "N#CC1=C(N)Oc2[nH]c(=O)[nH]c(=O)c2C1c1ccccc1Cl (stereo not drawn)"
  diameter of the inhibition zone (DIZ), mm: 18
- COMPOUND: "CN[C@@H]1[C@H](O[C@H]2[C@H](O[C@H]3[C@H](O)[C@@H](O)[C@H](N=C(N)N)[C@@H](O)[C@@H]3N=C(N)N)O[C@@H](C)[C@]2(O)C=O)O[C@@H](CO)[C@H](O)[C@H]1O [STREPTOMYCIN]"
  diameter of the inhibition zone (DIZ), mm: 18
- COMPOUND: "Cc1ccc(C2C(C#N)=C(N)Oc3[nH]c(=O)[nH]c(=O)c32)cc1 (stereo not drawn)"
  diameter of the inhibition zone (DIZ), mm: 10
- COMPOUND: "N#CC1=C(N)Oc2[nH]c(=O)[nH]c(=O)c2C1c1ccc(Cl)cc1 (stereo not drawn)"
  diameter of the inhibition zone (DIZ), mm: 16
- COMPOUND: "COc1ccc(C2C(C#N)=C(N)Oc3[nH]c(=O)[nH]c(=O)c32)cc1OC (stereo not drawn)"
  diameter of the inhibition zone (DIZ), mm: 10
- COMPOUND: "N#CC1=C(N)Oc2[nH]c(=O)[nH]c(=O)c2C1c1ccc([N+](=O)[O-])cc1 (stereo not drawn)"
  diameter of the inhibition zone (DIZ), mm: 18
- COMPOUND: "N#CC1=C(N)Oc2[nH]c(=O)[nH]c(=O)c2C1c1cccc([N+](=O)[O-])c1 (stereo not drawn)"
  diameter of the inhibition zone (DIZ), mm: 12
- COMPOUND: "CCn1cc(C(=O)O)c(=O)c2cc(F)c(N3CCNCC3)cc21 [NORFLOXACIN]"
  diameter of the inhibition zone (DIZ), mm: 24

* * *

# reported IC50; entries follow
TEST: Cytotoxicity against human HDF cells assessed as reduction in cell viability by MTT assay
Assay type: toxicity, cell-based
TEST SETTINGS: HDF cells (NHDF cell line)

- COMPOUND: "N#CC1=C(N)Oc2[nH]c(=O)[nH]c(=O)c2C12c1ccccc1-n1c2nc2ccccc2c1=O (configuration not stated)"
  IC50: "> 100 µM"
- COMPOUND: "N#CC1=C(N)Oc2[nH]c(=O)[nH]c(=O)c2C12c1cc(Br)ccc1-n1c2nc2ccccc2c1=O (configuration not stated)"
  IC50: "> 100 µM"

* * *

System: Escherichia coli
TEST: Antimicrobial activity against Escherichia coli ATCC 14169 assessed as diameter of inhibition zone at 20 mg/ml incubated for 24 hrs by disk diffusion method
Assay type: functional
TEST SETTINGS: read-out: DIZ
Outcome label depends on zone of inhibition at 20000 µg/mL relative to 10 mm: at/above gives 1, below gives -1.

- MOLECULE: "CN[C@@H]1[C@H](O[C@H]2[C@H](O[C@H]3[C@H](O)[C@@H](O)[C@H](N=C(N)N)[C@@H](O)[C@@H]3N=C(N)N)O[C@@H](C)[C@]2(O)C=O)O[C@@H](CO)[C@H](O)[C@H]1O"
  LABEL CLASS: 1
- MOLECULE: "COc1ccc(C2C(C#N)=C(N)Oc3[nH]c(=O)[nH]c(=O)c32)cc1OC (stereo unspecified)"
  LABEL CLASS: -1
- MOLECULE: "N#CC1=C(N)Oc2[nH]c(=O)[nH]c(=O)c2C1c1ccc(O)cc1 (stereo unspecified)"
  LABEL CLASS: 1
- MOLECULE: "N#CC1=C(N)Oc2[nH]c(=O)[nH]c(=O)c2C1c1cccc(O)c1 (stereo unspecified)"
  LABEL CLASS: 1
- MOLECULE: "N#CC1=C(N)Oc2[nH]c(=O)[nH]c(=O)c2C1c1ccccc1 (stereo unspecified)"
  LABEL CLASS: 1
- MOLECULE: "COc1ccc(C2C(C#N)=C(N)Oc3[nH]c(=O)[nH]c(=O)c32)cc1 (stereo unspecified)"
  LABEL CLASS: -1
- MOLECULE: "COc1ccccc1C1C(C#N)=C(N)Oc2[nH]c(=O)[nH]c(=O)c21 (stereo unspecified)"
  LABEL CLASS: -1
- MOLECULE: "N#CC1=C(N)Oc2[nH]c(=O)[nH]c(=O)c2C1c1ccc([N+](=O)[O-])cc1 (stereo unspecified)"
  LABEL CLASS: 1
- MOLECULE: "N#CC1=C(N)Oc2[nH]c(=O)[nH]c(=O)c2C1c1ccc(Br)cc1 (stereo unspecified)"
  LABEL CLASS: -1
- MOLECULE: "N#CC1=C(N)Oc2[nH]c(=O)[nH]c(=O)c2C1c1ccccc1[N+](=O)[O-] (stereo unspecified)"
  LABEL CLASS: 1
- MOLECULE: "N#CC1=C(N)Oc2[nH]c(=O)[nH]c(=O)c2C1c1cccc([N+](=O)[O-])c1 (stereo unspecified)"
  LABEL CLASS: 1
